Examples of binders with documented EC50 follow.
Biological target: T1, MICA*001 expressed at the cell surface (human, UniProt Q29983 24-297)
T1 construct: the protein on cells also has its transmembrane and cytoplasmic parts (Genbank AAB41060); also called C1R-MICA*001; C1R-MICA*01
T1 sequence: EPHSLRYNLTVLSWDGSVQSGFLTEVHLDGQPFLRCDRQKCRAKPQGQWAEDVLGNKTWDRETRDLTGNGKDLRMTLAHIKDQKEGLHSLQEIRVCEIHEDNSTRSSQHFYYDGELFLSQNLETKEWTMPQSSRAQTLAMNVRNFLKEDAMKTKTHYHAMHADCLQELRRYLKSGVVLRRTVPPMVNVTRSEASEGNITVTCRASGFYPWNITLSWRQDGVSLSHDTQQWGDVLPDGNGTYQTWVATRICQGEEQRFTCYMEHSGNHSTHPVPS
Assay: flow cytometry on C1R transfectant cells, 4-parameter logistic fit
Please reply with the bare figure in µg/mL and do not write the unit itself.

[[record]]
binder = "CHG1-M-MIA-14B4 (antibody, V domains shown, the VH entry ends with ASTK) VH: QVQLQQPGAELVRPGASVKLSCKASGYSFTSYWMNWMKQRPGQGLEWIGMIHPSDSETRLNQKFKDKATLTVDKSSSTAYMQLNSPTSEDSAVYYCAREMGPYTLDYWGQGTSVTVSS VL: DILLTQSPAILSVSPGARVSFSCRASQNIDTSIHWYQQRTNGSPRLLIKYASESISGIPSRFSGSGSGTDFTLSINSVESEDIADYYCQQSNYWPLTFGAGTKLELK"
measure = "EC50"
reportedresult = 12.7

[[record]]
binder = "CHG1-M-MIA-6E4 (antibody, V domains shown, also called chimeric anti-MICA 6E4) VH: EVQLVESGGALVKPGGSLKLSCAASGFTFSYYAMSWVRQTPEKRLEWVATISRGGNYIYYTDSVKGRFTISRDNAKNTLYLQMTSLRSEDTAMFYCASISDYDGAWLAYWGQGTTLTVSS VL: DVLMTQTPLSLPVSLGDQASISCRSSQSIIHTNGNTYLEWYLQKPGQSPKLLIYKISNRFSGVPDRFSGSGSGTDFTLKISRVEAEDLGVYYCFQGSHVPWTFGGGTKLEIKR"
measure = "EC50"
reportedresult = 1.96

[[record]]
binder = "CHG1-M-MIA-20C6 (antibody, V domains shown, also called chimeric anti-MICA 20C6) VH: QITLKESGPGILKPSQTLSLTCSFSGFSLSTSGMGVGWIRQPSGKGLEWLAHIWWDDDKYYNPSLKSQLTISKDTSRNQVFLRITSVDTADTATYYCARRTQGYFDYWGQGTTLTVSS VL: DIVMTQSPATLSVTPGDRVSLSCRASQSISDYLHWYQQKSHESPRLLIKYASQSISGIPSRFSGSGSGSDFTLSINSVEPEDVGVYYCQNGHSFPWTFGGGTKLEIKR"
measure = "EC50"
reportedresult = 0.26

[[record]]
binder = "CHG1-M-MIA-10F3 (antibody, human IgG1, V domains shown, the VH entry ends with ASTK) VH: QVQLQQSAAELARPGASVKMSCKASGYTFTSYTMHWVKQRPGQGLEWIGYINPSSGYTEYNQKFKDKTTLTVDKSSTTSYMQLSSLTSDNSAVYYCARGGDWDVDWFVYWGQGTLVTVSA VL: QIVLTQSPAIMSASPGEKVTITCSASSSISYMHWFQQKPGTSPKLWIYSTSKLASGVPARFSGSGSGTSHSLTISRMEAEDAATYYCQHRSTYPFTFGSGTKLEIK"
measure = "EC50"
reportedresult = 0.47


Item CHG1-M-MIA-12A10 (antibody, human IgG1, V domains shown, the VH entry ends with ASTK) VH: QVQLQQSGADLVRPGASVRLSCRASGYSFTNYWMNWVKQRPGQGLEWIGMIHPSDSETRLNQKFKDKATLTVDKSSNTAYMQLSSPTSEDSAIYYCARDDFFTMDYWGQGTSVTVSS VL: DILLTQSPAILSVSPGERVSFSCRASQNIVTSIHWYQQSTNGSPRLLIKYASESISGIPSRFSGSGSGTDFTLTINSVESEDVADYYCQQSNIWPLTFGAGTKLELK : provide EC50
1.3

All figures here come from patent US20200299380A1.
